tested on: ATP; assay: switch fluorescence ratio, 500 uM ATP over buffer (Cy3 cluster intensity, sum of 5 cycles each) (fold (ratio)); higher = stronger signal-on switching upon ATP binding; sequences stand for … in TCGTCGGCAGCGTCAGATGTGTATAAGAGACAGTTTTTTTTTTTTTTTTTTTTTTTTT…TC; details: aptamer strand: ATP DNA aptamer (quencher-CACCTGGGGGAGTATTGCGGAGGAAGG + anchor), 100 nM annealed; ATP concentration: 500 uM;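 note: ATP exposure 15 min at 22 °C before imaging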
Label true (1) when switch fluorescence ratio is at or above 1; anything below gets false (0).

Examples with answers:
Given the entry CGTAAAGGCC , answer whether its switch fluorescence ratio meets or surpasses 1.
false (0)

Given the entry GGGTCTTTGG , answer whether its switch fluorescence ratio meets or surpasses 1.
false (0)

Given the entry TTTCACGCTC , answer whether its switch fluorescence ratio meets or surpasses 1.
true (1)

Further cases:
Given the entry TCGGAATGGC , answer whether its switch fluorescence ratio meets or surpasses 1.
true (1)

Given the entry TTAATATTGT , answer whether its switch fluorescence ratio meets or surpasses 1.
true (1)

Given the entry GATACAGTAA , answer whether its switch fluorescence ratio meets or surpasses 1.
true (1)

Given the entry CGGACTAAGA , answer whether its switch fluorescence ratio meets or surpasses 1.
true (1)

Given the entry CTGCTCGTAA , answer whether its switch fluorescence ratio meets or surpasses 1.
true (1)

Given the entry TGACAATCCT , answer whether its switch fluorescence ratio meets or surpasses 1.
true (1)

Each recorded value in this set is attributed to the supplement of paper PMC10126150.
